All values here come from the supplement of paper PMC10567573.

B1: CDC25A (parent)
chain: TVAGKHQDLKYISPEIMASVLNGK

Variants of: B1
experimentNotes: protein stability index of a GFP-peptide fusion (GPS, HEK-293T) (PSI 1-6); higher = more stable;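 also: lentivirally expressed fusions sorted by FACS into six bins by GFP to DsRed ratio, PSI derived from sequencing read proportions per bin multiplied by bin number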
statedConditions: c terminus: a fixed tail appended
measuredAttribute: protein stability index

Query: Please look up its protein stability index: TVAGKHQDLKYISPEIMASMLNGK [V20M]
Result: 3.56

Query: Please look up its protein stability index: TVAGKKQDLKYISPEIMASVLNGK [H6K]
Result: 3.27
